biological target: CB1-receptor (UniProt P20272); assay: In-vitro determination of affinity (binding) to CB1-receptors, radioligand [3H]-CP55940; parameters: % inh; 10^−7 M; compound at 10^−7 M; species or system human or rat; conditions: compound at 10^−7 M
test-readout: % inh. 10^−7 M (%)

(P) COC(=O)CCc1ccc(S(=O)(=O)NCC2=NN(c3ccc(Cl)cc3Cl)C(c3ccc(Cl)cc3)C2)cc1 (stereo not shown)
(Q) O=S(=O)(NCC1=NN(c2ccc(Cl)cc2Cl)C(c2ccc(Cl)cc2)C1)C1=C(Cl)NC2SC=CN12 (stereo not shown)
(R) O=S(=O)(NCC1=NN(c2ccc(Cl)cc2Cl)C(c2ccc(Cl)cc2)C1)c1ccsc1 (stereo not shown)
query: Put the above entries in order of falling % inh. 10^−7 M. Answer by naming the labels in the order asked.
result: R, Q, P

(P) COc1cc(C)ccc1S(=O)(=O)NCC1=NN(c2ccc(Cl)cc2Cl)C(c2ccc(Cl)cc2)C1 (stereo not shown)
(Q) Cc1cc(S(=O)(=O)NCC2=NN(c3ccc(Cl)cc3Cl)C(c3ccc(Cl)cc3)C2)c(C)cc1Cl (stereo not shown)
query: Given P and given Q , which shows the smaller recorded % inh. 10^−7 M? Let me know the label of the one you choose.
result: P
(P: 26.5%, Q: 53.2%)

(1) Cc1cccc(Cl)c1S(=O)(=O)NCC1=NN(c2ccc(Cl)cc2Cl)C(c2ccc(Cl)cc2)C1 (stereo not shown)
(2) O=S(=O)(NCC1=NN(c2ccc(Cl)cc2Cl)C(c2ccc(Cl)cc2)C1)c1cccc(C(F)(F)F)c1 (stereo not shown)
query: Which shows the larger % inh. 10^−7 M value: 1 or 2 ? Let me know the label of the one you choose.
result: 1
(1: 53.8%, 2: 26.1%)
